Experiment: Compound solubility determination in FaSSIF and FeSSIF
Format: physicochemical
Settings: thermodynamic from solid; FaSSIF (Fasted State Simulated Intestinal Fluid), pH 6.8 buffer; read-out: Solubility in FaSSIF
assayMetric: solubility at 24 h

INSERT INTO results (compound, assayresult) VALUES
  ('Cc1[nH]c(CO)c(Cl)c(=O)c1-c1ccc(Oc2cccc(C(F)(F)F)c2)cc1 [Example 4]', '1 to 5 µg/mL'),
  ('CON=Cc1[nH]c(C)c(Cl)c(=O)c1-c1ccc(Oc2ccc(OC(F)(F)F)cc2)cc1 (single isomer, unassigned) [Example 6]', '5 to 10 µg/mL');

Exercise: Could you share which solubility at 24 h value was measured for Cc1[nH]c(CCCO)c(-c2ccc(Oc3ccc(OC(F)(F)F)cc3)cc2)c(=O)c1Cl [Example 8] ?
Key: 10 to 50 µg/mL

Exercise: Give its solubility at 24 h value. Item: Cc1[nH]c(/C=N/O)c(-c2ccc(Oc3ccc(OC(F)(F)F)cc3)cc2)c(=O)c1Cl [Example 5]
Key: 5 to 10 µg/mL
